Experiment: pH solubility profile of Compound 1 in buffers, water, HCl and biorelevant media
Type: physicochemical
Conditions: Simulated Gastric Fluid (SGF), simulated gastric fluid; SGF, pH 1.6, actual pH 1.39
value_type: solubility

- Cc1ccc(NC(=O)[C@H]2CCCN(C(=O)c3c(C)cccc3F)[C@H]2c2ccc(NC3CCCC3)cc2)cc1C(F)(F)F [Compound 1]: 2.65 µg/mL

----------
Assay: Pharmacokinetics of solid solution capsules in dogs
Details: male, beagle, dog, in vivo, po, 20 mg, PO 20 mg/dog, capsule in 50:50 macrogol-40-glycerol hydroxystearate:PEG-4000, trial T2
value_type: AUC(0-t) (ng·h/mL)

- Cc1ccc(NC(=O)[C@H]2CCCN(C(=O)c3c(C)cccc3F)[C@H]2c2ccc(NC3CCCC3)cc2)cc1C(F)(F)F: 1390
